B1: Intersectin-1, residues 909 to 971; numbered along this chain, Q15811 (parent)
chain: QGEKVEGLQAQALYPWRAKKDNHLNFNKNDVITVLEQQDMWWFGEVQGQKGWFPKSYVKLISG

Variants of: B1
assayDetails: abundance fitness (aPCA) (normalised: wild type 0, dead -1); higher = more abundant; growth selection in yeast, the domain comes from the species named
conditionContext: Homo sapiens
valueType: abundance fitness
Answer with a bare number; do not write a unit.

Example variants with recorded abundance fitness:
# abundance fitness of Q47G = -0.009

# abundance fitness of E45L = -0.076

# abundance fitness of Y57S = -0.308

# abundance fitness of Q38K = -0.173

# abundance fitness of V5G = -0.155

New cases:
# abundance fitness of K59L = -0.331

# abundance fitness of R17A = -0.19

# abundance fitness of Q49C = 0.046

# abundance fitness of G48C = -0.361

# abundance fitness of Q47M = -0.097

# abundance fitness of W42Q = -0.837
